ASSAY: amyloid nucleation score (Sup35N fusion, yeast selection) (log enrichment); library NNK3; higher = more nucleation; inactive = no reads after selection;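 further: zero at mode of non-aggregating sequences after 7 days selection at 30°C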
EXPERIMENTAL_ENDPOINT: amyloid nucleation score

LLDSVNGHCYMCLTIMGVRN    inactive
AYSSQSTCTFCASIFSDSKI    2.68
FYSLWRNRYNNSNQEWDIRW    inactive
VSNCFTSLQT    inactive

-- ask Record request: amyloid nucleation score value, item AAPCFVKLLHGLVVRVQVVM
-- reply inactive

-- ask Record request: amyloid nucleation score value, item HSSGDTWLGRV
-- reply inactive

-- ask Record request: amyloid nucleation score value, item PFPHKDQYHGGGKWPDE
-- reply inactive

-- ask Record request: amyloid nucleation score value, item TSHNGPYLSMFFRVANT
-- reply inactive

-- ask Record request: amyloid nucleation score value, item FVMTIM
-- reply inactive

-- ask Record request: amyloid nucleation score value, item CPCDTGVKQVTILEQGWVVM
-- reply 0.963

====

ASSAY: amyloid nucleation score (Sup35N fusion, yeast selection) (log enrichment); library NNK2; higher = more nucleation; inactive = no reads after selection
substances and their reported amyloid nucleation score
Keep the answer to the number alone.

Below are worked cases with known answers.
SSVAKVRGSVLYMGRSGWVG    0.138
VYVFYVSIKVAVFTLTM    3.92
VDVRMDEWVDRTAFAWMMRV    0.875
PYGFRVFTLWMLKRDSS    0.92
SMYLCDK    -0.621

-- ask Record request: amyloid nucleation score value, item PRCRVAR
-- reply 0.305

-- ask Record request: amyloid nucleation score value, item FDALRIFVPVPYRRWSSR
-- reply 1.52

====

substances and their reported amyloid nucleation score
ASSAY: amyloid nucleation score (Sup35N fusion, yeast selection) (log enrichment); library NNK1; higher = more nucleation; inactive = no reads after selection
Keep the answer to the number alone.

VSCCSNLVY    0.144
REITCR    -0.24
LHTTKK    0.293
SCRLIDWVPSHSRYRTFCCE    -0.386
KWLLTDDLRSGISAWWECPL    -0.233
FPLCSCHCYSSTWMCYRASL    0.048

-- ask Record request: amyloid nucleation score value, item RWGGDALNAWHASDSSVGLR
-- reply -1.01

-- ask Record request: amyloid nucleation score value, item SVGSLRRFSDFIYWNVVLNM
-- reply -0.3

-- ask Record request: amyloid nucleation score value, item SLQAIGNWYHD
-- reply 0.038

-- ask Record request: amyloid nucleation score value, item RVPATLNLLGVRQGRD
-- reply 0.26

====

ASSAY: amyloid nucleation score (Sup35N fusion, yeast selection) (log enrichment); library NNK3; higher = more nucleation; inactive = no reads after selection
EXPERIMENTAL_ENDPOINT: amyloid nucleation score

Below are worked cases with known answers.
RFKYPPTFKMNSSSFFQSLL    inactive
FDGKMVYFSAEFSFDKFLDR    1.74
VTEYKFKVFLPMRKRSVIMV    inactive
CRLPLQSL    inactive

-- ask Record request: amyloid nucleation score value, item SGKSLDDRFSK
-- reply inactive

-- ask Record request: amyloid nucleation score value, item LVFPVKKSLVCEGV
-- reply inactive

-- ask Record request: amyloid nucleation score value, item ATEDPKLESGCVAEIVPFRG
-- reply -0.481

-- ask Record request: amyloid nucleation score value, item KLLSMGVSTKRRT
-- reply inactive

-- ask Record request: amyloid nucleation score value, item YDCVIYSVAECLYVTSSFIE
-- reply 0.253

-- ask Record request: amyloid nucleation score value, item CTHVLRNWGIKNGP
-- reply inactive

-- ask Record request: amyloid nucleation score value, item LIDNRRFRHLLTRNVFVSHH
-- reply inactive

-- ask Record request: amyloid nucleation score value, item LSFYCFNYSNFDMVWNGKYN
-- reply 2.29
